Data provenance: PubChem BioAssay (NCATS)

TESTED ON: Glutathione peroxidase 1 (Homo sapiens)
METHOD DESCRIPTION: Primary qHTS Assay for Inhibitors of Recombinant Selenoprotein Glutathione Peroxidase 1 (GPX1) (AID 1845191); note: nearly all actives have a fitted effect of over 65% in size
CONDITION SUMMARY: recombinant GPX1, GR-coupled NADPH fluorescence, 15 min; series mostly up to 48.8 µM
Inconclusive results are not listed. Activity calls are given as the source filed them. Calls come from the whole dose curve; as a rule, active = well fitted inhibition curve with a large enough effect; inconclusive = small, poorly fitted or top-dose-only effect; inactive = flat fitted curve, though single readings scatter.
READOUT TYPE: outcome

[[record]]
molecular_string = "CCCCCCCCCCCCCCCCCCO"
observed_value = "inactive"

[[record]]
molecular_string = "CC(C)c1cc2c(cc1S(=O)(=O)O)[C@@]1(C)CCC[C@@](C)(C(=O)O)[C@@H]1CC2"
observed_value = "inactive"

[[record]]
molecular_string = "Cc1ccsc1/C=C/C1=NCCCN1C"
observed_value = "inactive"

